test system: Malme-3M; assay: NCI tumour cell line growth inhibition, 48 h
Calls of active or inactive are those of the source. Cut-off read from the data, not from the text of the source: active = GI50 up to about 1.1 µM and inactive = higher.
The following compounds are shown together with reported GI50 values.
measurement.kind: GI50

compound	experimental.target	assay.value
CC(C)(CN1CCCCC1)C(=O)/C=C/c1ccc(/C=C/C(=O)C(C)(C)CN2CCCCC2)cc1	Malme-3M	0.871 µM (active)
Oc1ccc(Br)cc1/C=N/c1ccc(Oc2ccc(/N=C/c3cc(Br)ccc3O)cc2)cc1	Malme-3M	> 19.6 µM (inactive)
COc1ccc(C2=Nn3c(nnc(Cc4ccc(Cl)cc4)c3=O)SC2)cc1	Malme-3M	> 100 µM (inactive)
O=C1CSC2=NCC3(NN12)c1ccccc1-c1ccccc13	Malme-3M	> 10 µM (inactive)
CN(C)c1n/c(=N/Cc2ccco2)ss1	Malme-3M	18.7 µM (inactive)
COc1ccc(CC(C)N)cc1 (configuration not stated)	Malme-3M	> 100 µM (inactive)
NC1=NC2(COC(c3ccccc3)(c3ccccc3)c3ccccc3)OC(COC(c3ccccc3)(c3ccccc3)c3ccccc3)C(O)C2O1 (configuration not stated)	Malme-3M	18.4 µM (inactive)
O=[N+]([O-])c1cccc(C2=NN(c3ccccc3)C[N+](c3ccc(Br)cc3)=N2)c1	Malme-3M	> 100 µM (inactive)
FC(F)(F)c1ccc(C2SCc3nc4ccccc4n32)cc1 (configuration not stated)	Malme-3M	> 100 µM (inactive)
O=C(NCCc1ccccc1)c1c(O)nc2ccccc2c1O	Malme-3M	> 100 µM (inactive)
CC(=O)OC1OC2C(NC(=O)OC(C)(C)C)C1CC2(OCc1ccccc1)OCc1ccccc1 (configuration not stated)	Malme-3M	14.4 µM (inactive)
CCC(=O)OC1CCn2c1nc1c2C(=O)C(C)=C(N2CC2)C1=O (configuration not stated)	Malme-3M	0.063 µM (active)
C=C1COC(O)(C2OCOC(C3CC(=O)NC(=O)C3)C2O)C1C (configuration not stated)	Malme-3M	0.00221 µM (active)
O=c1c2cc(Br)ccc2[nH]c(=S)n1-c1ccc(Br)cc1	Malme-3M	> 100 µM (inactive)
COc1cc2oc(-c3ccc(O)cc3)cc(=O)c2c(OC)c1O	Malme-3M	> 100 µM (inactive)
O=[N+]([O-])c1ccc(N2C[N+](c3ccccc3)=NC(c3ccccc3)=N2)cc1	Malme-3M	91.2 µM (inactive)
COc1ccc(CCNC(=S)NC=C2C(=O)c3ccccc3C2=O)cc1OC	Malme-3M	> 100 µM (inactive)
Cn1c2ccccc2c2c(=O)[nH]c(=O)[nH]c21	Malme-3M	> 100 µM (inactive)
O=C1c2ccccc2C(=O)c2c1oc(=O)c1ccccc21	Malme-3M	2.63 µM (inactive)
Cc1n[nH]c(=S)n(C)c1=S	Malme-3M	> 100 µM (inactive)
CC1CC[C@]2(C(=O)O)CCC3(C)C(=CCC4[C@@]5(C)CC[C@H](OS(=O)(=O)c6ccccc6)C(C)(C)C5CC[C@]43C)[C@@H]2[C@H]1C (some centres not stated)	Malme-3M	> 100 µM (inactive)
CN(C)C(=N/O)/C(=N\O)N(C)C	Malme-3M	> 100 µM (inactive)
N#CCCN(CCC#N)c1ccc(/C=N\c2ccc(F)cc2)cc1	Malme-3M	> 84.3 µM (inactive)
CCOC(=O)CC[C@H](NC(=O)c1nc[nH]c1[N+](=O)[O-])C(=O)OCC	Malme-3M	> 100 µM (inactive)
O=C1CC(c2cccc([N+](=O)[O-])c2)C2(C(=O)NC(=O)NC2=O)C(c2cccc([N+](=O)[O-])c2)C1 (configuration not stated)	Malme-3M	0.783 µM (active)
OC1OCC(COc2cc(Cl)c(Cl)cc2Cl)OC1O (configuration not stated)	Malme-3M	61.2 µM (inactive)
FC(F)(F)c1nc(-c2ccccc2Cl)[nH]c1C(F)(F)F	Malme-3M	0.861 µM (active)
COC(=O)C1(C)CCC(c2ccc(C)cc2)=C(CC(=O)O)C1 (configuration not stated)	Malme-3M	> 100 µM (inactive)
C[n+]1cccc2c(=O)c3ccccc3oc21	Malme-3M	> 100 µM (inactive)
C=CC(OC(C)=O)c1ccc(OC(C)=O)cc1 (configuration not stated)	Malme-3M	2.92 µM (inactive)
CCc1n[nH]c(=O)n1N1C(=O)C2CC=CCC2C1=O (configuration not stated)	Malme-3M	> 100 µM (inactive)
CC(=O)OCC1OC(n2nc(Cc3ccccc3)c(=S)[nH]c2=S)C(OC(C)=O)C(OC(C)=O)C1OC(C)=O (configuration not stated)	Malme-3M	31.6 µM (inactive)
O=c1sc2ccccc2n1CC1CS1 (configuration not stated)	Malme-3M	> 100 µM (inactive)
CCC1(O)C(=O)OCc2c1cc1n(c2=O)Cc2cc3ccc(C=O)cc3nc2-1 (configuration not stated)	Malme-3M	4.33 µM (inactive)
CCOc1ccc(/N=C/c2ccnc3ccccc23)cc1	Malme-3M	75.9 µM (inactive)
O=c1[nH]c(=S)[nH]c2c(C3OC(CO)C(O)C3O)nsc12 (configuration not stated)	Malme-3M	> 100 µM (inactive)
CCCCSC1=N/C(=C\c2ccccc2O)C(=O)N1	Malme-3M	> 100 µM (inactive)
C=C1C(=O)CC2C(=O)C(C)(O)CC/C=C(\C)C(=O)CC12 (configuration not stated)	Malme-3M	11.7 µM (inactive)
O=C1C(CN2CCCCC2)CCC1CN1CCCCC1 (configuration not stated)	Malme-3M	17.7 µM (inactive)
CCCC/C=C/C=C/C=C/CCCCCCCC(=O)OCC(COC(=O)CCCCCCC/C=C/C1C=CC(CCCC)C(C(=O)O)C1C(=O)O)OC(=O)CCCCCCC/C=C/C=C/C=C/CCCC.OCCNCO (configuration not stated)	Malme-3M	20.9 µM (inactive)
CN(NC1=NCCO1)c1ccc2ccccc2c1	Malme-3M	36.2 µM (inactive)
COC1CCC(OC2CC(C3(C)CCC4(CC(O)C(C)C(C(C)/C=C(\C)C(=O)C(C)CC(C)C(=O)O)O4)O3)OC3(OC(C4OC(O)(CO)C(C)CC4C)CC3C)C2C)OC1C (configuration not stated)	Malme-3M	< 0.0205 µM (active)

----------
test system: IGROV-1; assay: NCI tumour cell line growth inhibition, 48 h
Activity calls are given as the source filed them. Cut-off read from the data, not from the text of the source: active = GI50 up to about 1.1 µM and inactive = higher.
Classes used: active, inactive

compound	class
O=C(NC1C2CC3CC(C2)CC1C3)/C(Cl)=C1/Sc2ccccc2NC1=O (configuration not stated)	inactive
O=C(CCc1nnc(S)[nH]1)NC12CC3CC(CC(C3)C1)C2	inactive
O=C(NCCNCCO)c1cccc2ccc(-c3ccccc3)nc12	inactive
CC1=C(/C=C/C(C)=C/C=C/C(C)=C/C(=O)OC2CC(n3cc(F)c(=O)[nH]c3=O)OC2CO)C(C)(C)CCC1 (configuration not stated)	inactive
O=[N+]([O-])c1ccc2c(c1)nc1n2C(c2c(F)cccc2F)SC1 (configuration not stated)	inactive
C/C(CCOC1CCCCO1)=C(\C)[Si](C)(C)C (configuration not stated)	inactive
O=c1c(/C=C/c2c(O)ccc3ccccc23)nnc2sc(-c3cccc([N+](=O)[O-])c3)nn12	inactive
c1cc(-c2cn[nH]c2)cc(-c2cn[nH]c2)c1	inactive
O=C1c2ccccc2C(=O)c2c1oc(=O)c1ccccc21	inactive
COC(=O)CN1c2nc(C#N)c(C#N)nc2N(CC(=O)OC)c2nc(C#N)c(C#N)nc21	inactive
Cn1nc2ccc([N+](=O)[O-])cc2[n+]1[O-]	inactive
c1ccc2c(c1)C(=Nc1ccc(N=C3c4ccccc4-c4ccccc43)cc1)c1ccccc1-2	inactive
NNC(=O)CCC(=O)NC1C2CC3CC(C2)CC1C3 (configuration not stated)	inactive
COC(=O)C1=CC(=O)OC1(OO)c1ccccc1 (configuration not stated)	inactive
c1ccc2c3nc(C4CCCC4)nc-3c(NC3CCCC3)[nH]c2c1	inactive
N=C(N)N/N=C/c1c(Cl)nc2n1CCS2	inactive
O=[N+]([O-])c1cccc(C2=NN(c3ccccc3)C[N+](c3ccc(Br)cc3)=N2)c1	inactive
CCOc1ccc(/N=N/S(=O)(=O)O)cc1	inactive
COC(=O)[C@]1(C)[C@H]2C[C@H]3O[C@H]4[C@H](O)[C@@H](O)OC(CC(O)C(C5=CC(=O)OC5)C(C5=CC(=O)OC5)C(O)CC56CCCCC7[C@@H](C)[C@H](C[C@H]8[C@](C)(C(=O)OC)[C@H](O)CC[C@]78C)O[C@H]([C@@H](O)[C@H](O)O5)[C@H]6O)(CCCCC([C@@H]3C)[C@]2(C)CC[C@@H]1O)[C@H]4O (some centres not stated)	active
O=C1C(Cl)=C(N2CCN(c3ncccn3)CC2)C(=O)c2c(O)ccc(O)c21	inactive
COc1cc([C@@H]2c3cc4c(cc3[C@@H](NCCNCCO)[C@H]3COC(=O)[C@H]23)OCO4)cc(OC)c1O	active
O=[N+]([O-])c1ccc2nc(/C(=N/Nc3ccccc3)C(O)c3ccc(C(O)/C(=N\Nc4ccccc4)c4nc5ccc([N+](=O)[O-])cc5nc4O)cc3)cnc2c1 (configuration not stated)	inactive
COc1c(-c2nc3ccc(N4CCN(C)CC4)nc3[nH]2)cc(OC)c2c1nc(COC(C)=O)n2C	inactive
O=C1Oc2ccccc2C(=O)/C1=C/N1C(=O)/C(=C/c2ccc3c(c2)OCO3)SC1=S	inactive
CCCNC1=Nc2ccccc2[C@@H]2N(C)c3ccccc3C(C)C[C@]12C (some centres not stated)	inactive
CCOC(=O)/C(C#N)=C1\N[C@H](C(=O)OCC)CO1	inactive
CC(=O)NC1C(OCC(=O)NC(C)C(=O)NC(CCC(=O)NCCCCCNc2ccc([N+](=O)[O-])c3[nH]c4ccccc4c(=O)c23)C(N)=O)C(O)C(CO)OC1(C)OCc1ccccc1 (configuration not stated)	inactive
CCOC(=O)C(=O)Nc1c(C)cccc1C	inactive
Nc1ccc(C(=O)N/C(=C\c2ccc3c(c2)OCO3)c2nc3ccccc3s2)cc1	inactive
Cc1nn2c(nc1=O)sc1ccc3ccccc3c12	inactive
CCC(=O)Nc1cccc(/N=C/c2ccc(OC(=O)/C=C\c3ccccc3)cc2)c1	inactive
COc1ccc(N2NC(c3ccccc3)(c3ccccc3)C(C)C2=O)cc1 (configuration not stated)	inactive
O=C(O)COc1cc(-c2ccccc2F)nc2cc3c(cc12)OCO3	inactive
COc1cc([C@@H]2c3cc4c(cc3[C@@H](NC(=O)c3ccc([N+](=O)[O-])cc3)C3COC(=O)[C@@H]32)OCO4)cc(OC)c1O (some centres not stated)	active
CC(C)(CN1CCCCC1)C(=O)/C=C/c1ccc(/C=C/C(=O)C(C)(C)CN2CCCCC2)cc1	active
CC(=O)OCC1OC(n2cnc(C(N)=S)c2N)C(OC(C)=O)C1OC(C)=O (configuration not stated)	inactive
O=C(CCc1nnc(S)[nH]1)Nc1ccccc1Cl	inactive
